Test system: MS2 coat protein
Test: apparent KD of MS2 coat protein; designed switch direction (-1 OFF switch, 1 ON switch): 1; higher = weaker reporter binding
Settings: input ligand: FMN 200 uM
PROPERTY NAME: apparent KD of MS2 coat protein
Please append the unit to your numeric answer.

Worked examples follow.
1. GUGGUCAGACAUGAGGAUCACCCAUGUGGAAUAAAUAAGGGACAGGAUAUCUAAUAUAGGAUAUAAGAGAAGGGUUGGUUGGUG (Eterna round: R96, puzzle: Same State NG 3)
0.0693 µM
2. UUGAAGAAUUAAGGAUAUUGAUUACAUAUGUAUAACAUGAGGAUCACCCAUGUGGGUUGCGGUAUCGAGAAGGUAAAUUACUAG [Mat - same State NG 2 - JL mod - D75] (Eterna round: R96, puzzle: Same State NG 2)
0.145 µM
3. UUAAAGAAGUAAGGAUAUACAUGAGGAUCACUCGUAGAAGGUACUAAACAUGAGGAUCACCCAUGUACCGGUCCGUAGACUGGA [Mat - Same State NG 1 - JL mod - D2] (Eterna round: R96, puzzle: Same State NG 1)
0.96 µM
4. UGGUACAUGGGAGGAUAUCUCAUGGAGACAUGAGGAUCACCCAUGUAGAUGGGCGGUAACGCCGGAGAGAAGGCCCAUGUACCU [JL SSNG1 3.70] (Eterna round: R96, puzzle: Same State NG 2)
0.0292 µM
5. UUAAUGAUGUAAGGAUAUACAUGAGGAUUUCUCGUAGAAGGUACAAGACAUGAGGAUCACCCAUGUGUCGCUCAAUAGAGCGUA [Mat - Same State NG 1 - JL mod - D19] (Eterna round: R96, puzzle: Same State NG 1)
0.268 µM
6. CGGAAACGUCAAGGAUAUGCUACCGUUUCGGUAGCAGAAGGUGAUCACAUGAGGAUCACCCAUGUAUGCAUGCGUGAGCGUGCU [JL SSNG1 3.56] (Eterna round: R96, puzzle: Same State NG 1)
0.206 µM
7. UCGGGCGUACUUGCUGACAUGAGGAUCACCCAUGUAAUUGGGAAGGAUAUGGUUCCGUUUCGGUUCCAGAAGGUCCUGGGUGCU [salish99_SSNG3_r04_312] (Eterna round: R96, puzzle: Same State NG 3)
0.819 µM
8. GGUGCCAAAUAAGCCUACAUGAGGAUCACCCAUGUAUGUAGGCAGGAUAUCGUAUGCAAAGCAUACGAGAAGGGCCGAGGCACC [Mat - Same State NG 3 - JL Mod - D57] (Eterna round: R96, puzzle: Same State NG 3)
0.0238 µM

Attention now turns to another entry.
Reported apparent KD of MS2 coat protein ( UUGUUUUGUAAUUAACAUGAGGAUCACCCAUGUCUUGGCUCAGAGGAUAUACAUGUUUGUUUGUAGUAGAAGGCUGUUUGUUGU [JR_SSNG3_Sub095] (Eterna round: R96, puzzle: Same State NG 3) ) = 0.0947 µM

---

System: MS2 coat protein
Assay: apparent KD of MS2 coat protein; designed switch direction (-1 OFF switch, 1 ON switch): 1; higher = weaker reporter binding
Conditions: input ligand: microRNA oligo, concentration not stated
PROPERTY NAME: apparent KD of MS2 coat protein (nM)
The figure you give is taken to be in nM; do not add the unit.

Worked examples follow.
1. ACAUGAGACUUAGGAUAUCUUGUACCUACAUGUGACAUGAGGAUCACCCAUGUGGUAAGUAUGAGAGAGAAGGAAGAGAUAUGU [Equivalence 37 - Jieux - Same State NG 2] (Eterna round: R96, puzzle: Same State NG 2)
14.4
2. AGCUAGUACCAAGGAUAUACGAACAUGAGGAUCACCCAUGUAUACAUGGUUUAAUGAGACUACAUGUAGAAGGUGGUACUAGCA [SameState NG2 #12] (Eterna round: R96, puzzle: Same State NG 2)
338
3. GAGUGGUGGAAAGGAUAUGCAUUGUUAUUCACUGUAGAAGGUUCUAACAUGAGGAUCACCCAUGUAGGACUAUUCCUGUGUUUU [Parity 59 - Jieux - Same State NG 1] (Eterna round: R96, puzzle: Same State NG 1)
10.2

Attention now turns to another entry.
Record UGAAUAGUGAUAGGAUAUACAUGAGGAAUCCUCGUAGAAGGAUCAUAACAUGAGGAUCACCCAUGUAGCGCUCGAAAGAGCGCA [Mat - Same State NG 1 - JL mod - D55] (Eterna round: R96, puzzle: Same State NG 1) has MS2 coat protein apparent KD of MS2 coat protein equal to 207

---

Tested on: MS2 coat protein
Experiment: apparent KD of MS2 coat protein; designed switch direction (-1 OFF switch, 1 ON switch): 1; higher = weaker reporter binding
Conditions: Eterna round: R95; input ligand: FMN 200 uM
PROPERTY NAME: apparent KD of MS2 coat protein (nM)
The figure you give is taken to be in nM; do not add the unit.

Worked examples follow.
1) GCCGCACAUGAGGAUCACCCAUGUAAUUACAUGGGAGGAUAUCAGUGCUCGAAAGAGCACUGAGAAGGCCUGUGGC [SS1 - Omei A v2] (puzzle: Same State 1)
399
2) AGAUAGUGUGGAAAGGAUAUACGGUUGAGGACAUGAGGAUCACCCAUGUAGUAGAGGAAGGAAGGGUAGAAGGUUCAGGAUUGAU [JR_SS2_Sub018] (puzzle: Same State 2)
70.2
3) AAAGAUGGACAUGAGGAUCACCCAUGUGGAAAGUGAACAAGCUUUUGCUCGUGACAAAUGAACAAUCCAAUCCUAAA [mksensor] (puzzle: Sensor for hsa-mir-208a version 2)
26.3
4) AGAAAACAUGAGGAUCACCCAUGUAUAGUGAAUACAGGAUAUCACCGGCGGAAUAGCCAGUGAGAAGGGUGAUCGC [Aarusxe] (puzzle: Same State 1)
71.5

Reported apparent KD of MS2 coat protein ( UGAAUACAUGAGGAUCACCCAUGUCAACGUAGUCGAGGAUAUGGGCAGCCGUGAGGCGUACCAGAAGGCGAAGAGG [Mat - Same State 1 - Mod of JL - D4] (puzzle: Same State 1) ) = 40.4

---

System: MS2 coat protein
Assay: apparent KD of MS2 coat protein; designed switch direction (-1 OFF switch, 1 ON switch): -1; higher = weaker reporter binding
Details: Eterna round: R95; input ligand: FMN 200 uM
PROPERTY NAME: apparent KD of MS2 coat protein (nM)
The figure you give is taken to be in nM; do not add the unit.

1. GGCAAUAACGAGGAUAUCCUAUGGGAAACCAUAGGAGAAGGUGUAACAUGAGGAUCACCCAUGUUCCUCAAGCC [Mat - Exclusion 6 - Eli Mod - D67] (puzzle: Exclusion 6)
43.3
2. GAUUAUGCGAGCUUUAGGGACAUGAGGAUCACCCAUGUUCGUCUUAUUAGUCUAGGUGCGCUAACAUACCUAAAUCU [JMF 50] (puzzle: Sensor v3, turn-off variant 1)
20.7
3. CCGCAAAUGCAGGAUAUCGUAUCGGAUACGAUACGAGAAGGGCGAACAUGAGGAUCACCCAUGUGUCCUAGCGG [Fiskers Ex 6 - 40] (puzzle: Exclusion 6)
34.7

Reported apparent KD of MS2 coat protein ( CUGGUCCGAGGAUAUAUUAAGUGAUACAUGAGGAUCACCCAUGUAAUUUAAUGGAAGUAAAUAGAAGGCGGACUAG [Mat - Exclusion 5 - JL mod - D50] (puzzle: Exclusion 5) ) = 79.8

Reported apparent KD of MS2 coat protein ( GUGAGAUAGUUAGUGGCCGACAUGAGGAUCACCCAUGUGAGGGAAAUGUUGAGGCGAAAGCUUUUUGCUCGUCUUUA [JR_SV3TOV1_Sub037] (puzzle: Sensor v3, turn-off variant 1) ) = 30

---

Tested on: MS2 coat protein
Assay: apparent KD of MS2 coat protein; designed switch direction (-1 OFF switch, 1 ON switch): -1; higher = weaker reporter binding
Details: input ligand: FMN 200 uM
PROPERTY NAME: apparent KD of MS2 coat protein (nM)
The figure you give is taken to be in nM; do not add the unit.

1. GGUACUCAAAGAGUACCAAUACGAACAUGAGGAUCACCCAUGUAGGAUAUGCUACUCAAAGAGUAGCAGAAGGAUAUGAACCUC [Far Half Aptamer v10] (Eterna round: R96, puzzle: Exclusion NG 3)
407

Attention now turns to another entry.
Reported apparent KD of MS2 coat protein ( GCCACCACAUGAGGAUCAAACAUGAGGAUCACCCAUGUAUAACAAGCUUUUUGCUCGUCUUAUAAAUAUGUGGUGGC [Electric Eye 4 - Jieux - Sensor, turn-off variant 1] (Eterna round: R97, puzzle: Sensor, turn-off variant 1) ) = 14

---

System: MS2 coat protein
Test: apparent KD of MS2 coat protein, switch OFF state (with FMN for OFF switches, without FMN for ON switches); designed switch direction (-1 OFF switch, 1 ON switch): 1; higher = weaker reporter binding
Conditions: FMN input: 0 or 200 uM; Eterna round: R93 (includes R88 designs)
Catalogue of apparent KD of MS2 coat protein readings, one per entry.

Worked examples follow.
1. AAAAGACAUGAGGAUCACCCAUGUCAAAACGUAGGAGGAUAUGUCGUGAAAAAAGACUUGGCAGAAGGCCUGUGUC [SS1 - 42]
19.5 nM
2. UUAAGCCGCGGGCAGGAUAUGUAUUAAAAUACAUGAGGAUCACCCAUGUGCAGGUGUAACACCUGACAGAAGGGCCAAUCGCAGC [Ceanreerqu]
228 nM

Attention now turns to another entry.
Reported apparent KD of MS2 coat protein ( AUAUAUAUAAGGUAGGAUAUCCAAAAGUCCACAUGAGGAUCACCCAUGUAAAGAAAGAAAAAAUGGGAGAAGGACCAUAUAUAUA [77%, More Tesla, 5] ) = 42.1 nM
